- experimental-details: Inhibition of histamine H2 receptor
pIC50: −log10 of the molar value.

>  <compound>
N#Cc1ccc2[nH]cc(CCCCN3CCN(c4ccc5oc(C(N)=O)cc5c4)CC3)c2c1 [VILAZODONE]

>  <pIC50>
< 6.00

$$$$

###

- target-entity: Sodium-dependent serotonin transporter (Rattus norvegicus)
- Sequence (P31652 whole entry): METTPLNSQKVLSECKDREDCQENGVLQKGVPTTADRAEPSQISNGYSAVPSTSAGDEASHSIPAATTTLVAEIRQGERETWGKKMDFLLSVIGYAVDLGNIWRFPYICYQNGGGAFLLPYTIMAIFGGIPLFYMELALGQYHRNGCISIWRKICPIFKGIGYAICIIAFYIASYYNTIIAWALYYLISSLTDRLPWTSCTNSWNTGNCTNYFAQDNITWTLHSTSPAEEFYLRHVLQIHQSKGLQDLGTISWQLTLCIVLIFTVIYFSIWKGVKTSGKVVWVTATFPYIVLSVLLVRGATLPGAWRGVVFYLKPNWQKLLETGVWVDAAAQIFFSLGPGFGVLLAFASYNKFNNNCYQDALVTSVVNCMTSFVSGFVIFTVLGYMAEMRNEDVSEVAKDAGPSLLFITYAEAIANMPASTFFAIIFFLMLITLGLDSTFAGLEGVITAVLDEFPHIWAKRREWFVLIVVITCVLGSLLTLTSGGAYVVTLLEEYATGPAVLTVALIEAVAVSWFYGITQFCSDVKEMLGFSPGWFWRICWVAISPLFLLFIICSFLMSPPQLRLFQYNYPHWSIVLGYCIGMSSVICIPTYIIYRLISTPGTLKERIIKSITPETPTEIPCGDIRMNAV
- experimental-details: Inhibition of [3H]5-HT re-uptake in rat synaptosomes
pIC50: −log10 of the molar value.
Record y whenever pIC50 is at 9 or higher; record n when lower.

>  <cpd-smiles>
N#Cc1ccc2[nH]cc(CCCCN3CCN(c4ccc(O)cc4)CC3)c2c1

>  <label-class>
y

$$$$
>  <cpd-smiles>
N#Cc1ccc2[nH]cc(CCCCN3CCN(c4ccc5c(c4)OCCO5)CC3)c2c1

>  <label-class>
y

$$$$
>  <cpd-smiles>
COc1cc(N2CCN(CCCCc3c[nH]c4ccc(C#N)cc34)CC2)ccc1C#N

>  <label-class>
n

$$$$
>  <cpd-smiles>
COc1ccc(Cl)cc1N1CCN(CCCCc2c[nH]c3ccc(C#N)cc23)CC1

>  <label-class>
n

$$$$
>  <cpd-smiles>
COc1ccccc1N1CCN(CCCCc2c[nH]c3ccc(C#N)cc23)CC1

>  <label-class>
n

$$$$
>  <cpd-smiles>
c1ccc2c(CCCCN3CCN(c4ccc5c(c4)OCCO5)CC3)c[nH]c2c1

>  <label-class>
n

$$$$
>  <cpd-smiles>
N#Cc1ccc2[nH]cc(CCCCN3CCN(c4ccccc4C(N)=O)CC3)c2c1

>  <label-class>
n

$$$$

###

Each item that follows carries a reported pIC50.
- target-entity: D(2) dopamine receptor (Rattus norvegicus)
- Sequence (P61169 whole entry): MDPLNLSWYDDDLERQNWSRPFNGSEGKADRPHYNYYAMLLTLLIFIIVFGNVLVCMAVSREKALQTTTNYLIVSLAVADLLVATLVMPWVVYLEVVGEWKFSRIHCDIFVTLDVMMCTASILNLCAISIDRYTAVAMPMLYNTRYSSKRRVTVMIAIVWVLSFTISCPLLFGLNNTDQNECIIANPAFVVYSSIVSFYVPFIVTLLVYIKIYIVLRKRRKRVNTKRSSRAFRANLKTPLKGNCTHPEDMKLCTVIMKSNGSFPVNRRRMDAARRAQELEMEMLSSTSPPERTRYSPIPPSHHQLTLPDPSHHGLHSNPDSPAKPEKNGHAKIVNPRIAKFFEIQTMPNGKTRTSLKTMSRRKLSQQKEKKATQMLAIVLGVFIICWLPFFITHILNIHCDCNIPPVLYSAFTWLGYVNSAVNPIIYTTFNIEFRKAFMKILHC
- experimental-details: Displacement of [3H]spiperone from dopamine D2 receptor of rat striatal membranes
pIC50: −log10 of the molar value.

>  <molecule>
c1ccc2c(CCCCN3CCN(c4ccc5c(c4)OCCO5)CC3)c[nH]c2c1

>  <limit-qualifier>
<

>  <pIC50>
7.00

$$$$
>  <molecule>
N#Cc1ccc2[nH]cc(CCCCN3CCN(c4ccc5occc5c4C(N)=O)CC3)c2c1

>  <limit-qualifier>
=

>  <pIC50>
6.66

$$$$
>  <molecule>
N#Cc1ccc2[nH]cc(CCCCN3CCN(c4ccc5oc(C#N)cc5c4)CC3)c2c1

>  <limit-qualifier>
<

>  <pIC50>
6.20

$$$$
>  <molecule>
COc1ccc(N2CCN(CCCCc3c[nH]c4ccc(C#N)cc34)CC2)cc1

>  <limit-qualifier>
=

>  <pIC50>
7.34

$$$$
>  <molecule>
O/N=C/c1ccc2[nH]cc(CCCCN3CCN(c4ccc5c(c4)OCCO5)CC3)c2c1

>  <limit-qualifier>
=

>  <pIC50>
8.03

$$$$
>  <molecule>
NC(=O)c1cc2cc(N3CCN(CCCCc4c[nH]c5ccc(F)cc45)CC3)ccc2o1

>  <limit-qualifier>
<

>  <pIC50>
7.00

$$$$
>  <molecule>
COC(=O)c1ccc2[nH]cc(CCCCN3CCN(c4ccc5c(c4)OCCO5)CC3)c2c1

>  <limit-qualifier>
>

>  <pIC50>
7.00

$$$$
>  <molecule>
N#Cc1ccc2[nH]cc(CCCCN3CCN(c4ccc(F)cc4)CC3)c2c1

>  <limit-qualifier>
=

>  <pIC50>
8.38

$$$$
>  <molecule>
N#Cc1ccc2[nH]cc(CCCCN3CCN(c4ccc5c(c4)CC(C(N)=O)O5)CC3)c2c1 (stereo unspecified)

>  <limit-qualifier>
=

>  <pIC50>
5.85

$$$$
>  <molecule>
N#Cc1ccc2[nH]cc(CCCCN3CCN(c4ccc(O)cc4)CC3)c2c1

>  <limit-qualifier>
=

>  <pIC50>
7.46

$$$$
>  <molecule>
N#Cc1ccc2[nH]cc(CCCCN3CCN(c4ccc5[nH]c(C(N)=O)cc5c4)CC3)c2c1

>  <limit-qualifier>
=

>  <pIC50>
6.85

$$$$
>  <molecule>
COc1cc(C#N)ccc1N1CCN(CCCCc2c[nH]c3ccc(C#N)cc23)CC1

>  <limit-qualifier>
=

>  <pIC50>
8.22

$$$$
>  <molecule>
CCOCCOCCOc1cccc(N2CCN(CCCCc3c[nH]c4ccc(C#N)cc34)CC2)c1C#N

>  <limit-qualifier>
=

>  <pIC50>
7.55

$$$$
>  <molecule>
N#Cc1ccc2[nH]cc(CCCCN3CCN(c4ccc5c(c4)CCCO5)CC3)c2c1

>  <limit-qualifier>
>

>  <pIC50>
7.38

$$$$
>  <molecule>
N#Cc1ccc2[nH]cc(CCCCN3CCN(c4ccccc4C(N)=O)CC3)c2c1

>  <limit-qualifier>
=

>  <pIC50>
7.33

$$$$
>  <molecule>
N#Cc1ccc2[nH]cc(CCCCN3CCN(c4cccc5cc(C(N)=O)oc45)CC3)c2c1

>  <limit-qualifier>
=

>  <pIC50>
7.41

$$$$
>  <molecule>
N#Cc1ccc2[nH]cc(CCCCN3CCN(c4c(C#N)cccc4C#N)CC3)c2c1

>  <limit-qualifier>
>

>  <pIC50>
7.00

$$$$
>  <molecule>
N#Cc1ccc2[nH]cc(CCCCN3CCN(c4ccc5c(c4)CCO5)CC3)c2c1

>  <limit-qualifier>
=

>  <pIC50>
7.89

$$$$
>  <molecule>
COc1cccc(N2CCN(CCCCc3c[nH]c4ccc(C#N)cc34)CC2)c1C#N

>  <limit-qualifier>
=

>  <pIC50>
8.85

$$$$
>  <molecule>
N#Cc1ccc2[nH]cc(CCCCN3CCN(c4cccc5nsnc45)CC3)c2c1

>  <limit-qualifier>
=

>  <pIC50>
8.85

$$$$
>  <molecule>
O=C(O)c1ccc2[nH]cc(CCCCN3CCN(c4ccc5c(c4)OCCO5)CC3)c2c1

>  <limit-qualifier>
<

>  <pIC50>
7.00

$$$$
